Listed compounds paired with reported z-score
test: blockers of DNA damage checkpoint Chk1 activation – imaging, HeLa, hydroxyurea, phospho-Chk1 nuclear intensity, primary screen (AID 1187); details: hydroxyurea-induced phospho-Chk1 immunofluorescence imaging, higher = more signal; note: test concentration not given here
The source made the active and inactive calls. The rule behind the calls is not given here.

Known z-score results, listed for orientation:
[
  {
    "compound": "CN(C)C(=O)[C@@]1(CCS(=O)(=O)c2ccccc2)N=C(c2ccc(OCCCO)cc2)O[C@H]1c1ccccc1CN=[N+]=[N-]",
    "z-score": "-0.243 (inactive)"
  },
  {
    "compound": "CC(C)CCC[C@@H](C)[C@H]1CC[C@@]2(C)C3=C(CC[C@]12C)[C@@]1(C)CC[C@H](OC(=O)C(C)(C)C)C(C)(C)C1CC3 (stereo partly drawn)",
    "z-score": "-1.89 (inactive)"
  },
  {
    "compound": "CCCCCCCCCCC(O)C1C=CC2C(=O)NC(=O)C2N1Nc1ccccn1 (stereo not drawn)",
    "z-score": "0.554 (inactive)"
  }
]

Alright, here's another compound for you.
Query block: Give the measured z-score of CC1C=C(CCCO)C=C(C(=O)OCCS(C)(=O)=O)C(C(=O)OCCS(C)(=O)=O)=CN1Cc1cccc(OC(F)(F)F)c1 (stereo not drawn) .
Result block: 0.397 (inactive)
